Recorded PI3Kδ @ 0.1 μM (% Inh) values for a group of compounds are listed next.
Biological target: PI3Kδ (Homo sapiens, UniProt O00329)
Construct: purchased Reaction Biology Corporation
Sequence (O00329 whole entry): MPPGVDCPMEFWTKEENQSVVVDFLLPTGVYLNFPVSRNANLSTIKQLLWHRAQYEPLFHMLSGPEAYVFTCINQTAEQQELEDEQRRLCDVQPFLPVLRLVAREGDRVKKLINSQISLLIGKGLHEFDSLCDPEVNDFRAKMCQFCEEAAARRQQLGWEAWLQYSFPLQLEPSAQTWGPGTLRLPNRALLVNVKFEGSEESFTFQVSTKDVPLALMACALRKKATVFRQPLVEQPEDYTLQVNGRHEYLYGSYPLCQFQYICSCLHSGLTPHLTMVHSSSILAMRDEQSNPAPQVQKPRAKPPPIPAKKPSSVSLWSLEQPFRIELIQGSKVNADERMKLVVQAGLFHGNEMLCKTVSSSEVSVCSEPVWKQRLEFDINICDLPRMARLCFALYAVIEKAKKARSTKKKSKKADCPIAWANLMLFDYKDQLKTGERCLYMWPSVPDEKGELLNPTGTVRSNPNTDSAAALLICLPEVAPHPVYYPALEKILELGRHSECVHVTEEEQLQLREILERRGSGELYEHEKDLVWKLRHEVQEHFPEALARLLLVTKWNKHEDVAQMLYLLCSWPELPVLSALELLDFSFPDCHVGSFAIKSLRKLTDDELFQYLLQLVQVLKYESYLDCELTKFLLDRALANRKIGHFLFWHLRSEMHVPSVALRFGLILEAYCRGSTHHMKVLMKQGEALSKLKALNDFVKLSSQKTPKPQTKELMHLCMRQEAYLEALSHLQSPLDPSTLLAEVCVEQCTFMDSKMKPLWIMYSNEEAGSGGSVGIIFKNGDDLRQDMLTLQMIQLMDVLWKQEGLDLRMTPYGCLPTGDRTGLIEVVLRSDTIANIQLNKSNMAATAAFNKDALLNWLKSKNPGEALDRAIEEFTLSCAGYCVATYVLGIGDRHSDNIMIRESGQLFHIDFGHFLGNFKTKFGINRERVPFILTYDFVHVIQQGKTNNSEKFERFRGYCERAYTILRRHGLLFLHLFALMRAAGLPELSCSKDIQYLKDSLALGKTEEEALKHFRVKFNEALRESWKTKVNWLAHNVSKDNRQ
Sequence (P27986 whole entry partner): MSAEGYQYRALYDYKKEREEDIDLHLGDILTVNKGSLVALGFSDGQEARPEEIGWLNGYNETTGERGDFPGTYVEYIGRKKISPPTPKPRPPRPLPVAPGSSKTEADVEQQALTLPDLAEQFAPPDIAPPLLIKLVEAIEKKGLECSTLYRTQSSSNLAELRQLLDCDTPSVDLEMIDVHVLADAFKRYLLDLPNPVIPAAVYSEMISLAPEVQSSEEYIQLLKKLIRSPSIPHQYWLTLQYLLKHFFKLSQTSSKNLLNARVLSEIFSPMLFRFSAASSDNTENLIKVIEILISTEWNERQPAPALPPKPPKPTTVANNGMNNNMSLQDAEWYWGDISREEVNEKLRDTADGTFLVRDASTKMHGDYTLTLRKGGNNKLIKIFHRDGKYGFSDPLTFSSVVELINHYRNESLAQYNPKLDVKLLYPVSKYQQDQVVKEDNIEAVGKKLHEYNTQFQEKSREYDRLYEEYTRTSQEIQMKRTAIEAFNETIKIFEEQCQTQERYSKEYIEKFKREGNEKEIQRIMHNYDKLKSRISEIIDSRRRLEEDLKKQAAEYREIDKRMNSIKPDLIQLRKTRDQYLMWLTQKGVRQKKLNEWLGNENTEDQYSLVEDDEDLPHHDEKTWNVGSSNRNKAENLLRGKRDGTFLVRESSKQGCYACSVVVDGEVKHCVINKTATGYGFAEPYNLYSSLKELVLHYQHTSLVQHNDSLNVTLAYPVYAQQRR
Assay: PI3Kδ kinase assay (HTRF, PIP3 detection)
Format: biochemical
Conditions: 0.1 μM compound, 10 μM ATP
From the text: Compounds of the invention were profiled in a 10 dose IC50 panel against BTK and PI3Kδ, both provided by Reaction Biology Corporation. PI3Kδ assay: The PIP3 product is detected by displacement of biotin-PIP3 from an energy transfer complex consisting of Europium labeled anti-GST monoclonal antibody, a GST-tagged pleckstrin homology (PH) domain, biotinylated PIP3 and Streptavidin-Allophycocyanin (APC). […]

compound: Nc1ncnc2c1c(-c1cc(O)cc(F)c1)nn2C1CCc2ccccc21 (centres unmarked)
target.of.assay: PI3Kδ (Homo sapiens, UniProt O00329)
readout.units: % Inh
PI3Kδ @ 0.1 μM (% Inh): 64.19

compound: Nc1ncnc2c1c(-c1ccc(F)c(O)c1)nn2C1CCc2ccccc2C1 (single isomer, unassigned) [Compound No. 26b]
target.of.assay: PI3Kδ (Homo sapiens, UniProt O00329)
readout.units: % Inh
PI3Kδ @ 0.1 μM (% Inh): 47.94

compound: COc1ccc(-c2nn(C3CCCc4ccccc43)c3ncnc(N)c23)cc1OC (centres unmarked)
target.of.assay: PI3Kδ (Homo sapiens, UniProt O00329)
readout.units: % Inh
PI3Kδ @ 0.1 μM (% Inh): 27.41

compound: Nc1ncnc2c1c(-c1cc(O)c(F)c(F)c1)c(Cl)n2C1Cc2ccccc2C1
target.of.assay: PI3Kδ (Homo sapiens, UniProt O00329)
readout.units: % Inh
PI3Kδ @ 0.1 μM (% Inh): 56.02

compound: COc1cc(F)cc(-c2nn(C3Cc4ccccc4C3)c3ncnc(N)c23)c1
target.of.assay: PI3Kδ (Homo sapiens, UniProt O00329)
readout.units: % Inh
PI3Kδ @ 0.1 μM (% Inh): 25.0

compound: N#Cc1cc(-c2cn(C3Cc4ccccc4C3)c3ncnc(N)c23)cc(O)c1F
target.of.assay: PI3Kδ (Homo sapiens, UniProt O00329)
readout.units: % Inh
PI3Kδ @ 0.1 μM (% Inh): 93.12

compound: C=CC(=O)N1CC(n2nc(-c3cc(O)cc(F)c3)c3c(N)ncnc32)Cc2cc(C)ccc21 (single isomer, unassigned) [31a]
target.of.assay: PI3Kδ (Homo sapiens, UniProt O00329)
readout.units: % Inh
PI3Kδ @ 0.1 μM (% Inh): 68.13

compound: Nc1ncnc2c1c(-c1ccc(F)c(O)c1)nn2C1Cc2ccccc2C1
target.of.assay: PI3Kδ (Homo sapiens, UniProt O00329)
readout.units: % Inh
PI3Kδ @ 0.1 μM (% Inh): 61.73

compound: CCCCOc1cc(-c2nn(C3Cc4ccccc4C3)c3ncnc(N)c23)ccc1OC
target.of.assay: PI3Kδ (Homo sapiens, UniProt O00329)
readout.units: % Inh
PI3Kδ @ 0.1 μM (% Inh): 44.39

compound: Nc1ncnc2c1c(-c1ccc(CO)cc1)nn2C1Cc2ccccc2C1
target.of.assay: PI3Kδ (Homo sapiens, UniProt O00329)
readout.units: % Inh
PI3Kδ @ 0.1 μM (% Inh): 15.60

compound: Nc1ncnc2c1c(-c1ccc3[nH]c(O)nc3c1)nn2C1Cc2ccccc2C1
target.of.assay: PI3Kδ (Homo sapiens, UniProt O00329)
readout.units: % Inh
PI3Kδ @ 0.1 μM (% Inh): 21.98

compound: Nc1ncnc2c1c(-c1cc(O)cc(F)c1)nn2C1Cc2ccc(F)cc2C1 (centres unmarked)
target.of.assay: PI3Kδ (Homo sapiens, UniProt O00329)
readout.units: % Inh
PI3Kδ @ 0.1 μM (% Inh): 96.89

compound: COc1cc(-c2nn(C3Cc4ccccc4C3)c3ncnc(N)c23)ccn1
target.of.assay: PI3Kδ (Homo sapiens, UniProt O00329)
readout.units: % Inh
PI3Kδ @ 0.1 μM (% Inh): 39.05

compound: COc1cc(-c2nn(C3Cc4ccccc4C3)c3ncnc(N)c23)cc(C#N)c1OC
target.of.assay: PI3Kδ (Homo sapiens, UniProt O00329)
readout.units: % Inh
PI3Kδ @ 0.1 μM (% Inh): 16.0

compound: Nc1ncnc2c1c(-c1cc(O)cc(F)c1)cn2C1Cc2ccccc2C1
target.of.assay: PI3Kδ (Homo sapiens, UniProt O00329)
readout.units: % Inh
PI3Kδ @ 0.1 μM (% Inh): 81.43

compound: COc1c(Cl)ccc(-c2nn(C3Cc4ccccc4C3)c3ncnc(N)c23)c1Cl
target.of.assay: PI3Kδ (Homo sapiens, UniProt O00329)
readout.units: % Inh
PI3Kδ @ 0.1 μM (% Inh): 25.54

compound: Nc1ncnc2c1c(-c1cc(O)c(F)c(Cl)c1)nn2C1Cc2ccccc2C1
target.of.assay: PI3Kδ (Homo sapiens, UniProt O00329)
readout.units: % Inh
PI3Kδ @ 0.1 μM (% Inh): 91.69
